# Sp Max values compiled below
biological target: Glutamate NMDA receptor (Rattus norvegicus) (UniProt P35439+Q00959+Q00960+Q00961+Q62645+Q8VHN2+Q9R1M7); assay: Enhanced binding of [3H]MK-801 to N-methyl-D-aspartate glutamate receptor in presence of spermine; type: protein-complex assay
// unit must come after the numeric part

CNC1CCN(C)CC1	2%

What value of measured Sp Max is listed for NCCCNCCO ?
16%

What value of measured Sp Max is listed for CN1CC2CC1C[C@H](N)C2 (some centres undefined) ?
13%

What value of measured Sp Max is listed for NC1CCNCC1 ?
12%

What value of measured Sp Max is listed for CN(C)C1CCNCC1 ?
44%

What value of measured Sp Max is listed for CNCCCN ?
15%

What value of measured Sp Max is listed for CNCCCNC ?
16%

What value of measured Sp Max is listed for NCCCN ?
22%

What value of measured Sp Max is listed for CN1CC2CC1C[C@@H](N)C2 (some centres undefined) ?
8%

What value of measured Sp Max is listed for CNCC(C)CNC ?
11%

What value of measured Sp Max is listed for CN(C)CCCN(C)C ?
22%

What value of measured Sp Max is listed for CC(C)(CN)CN ?
5%

What value of measured Sp Max is listed for NCC(=O)CN ?
72%

What value of measured Sp Max is listed for NCC(O)CN ?
35%

====

test: Dissociation constant (pK2)
# pKa values compiled below
The answer should be written as a number, with no unit following it.

CN(C)C1CCNCC1	7.71
CC1(C)CC(NCCO)CC(C)(C)N1	7.42
NCC(=O)CN	6.89

What value of measured pKa is listed for CNC1CCN(C)CC1 ?
7.34

What value of measured pKa is listed for NCCCNCCO ?
8.19

What value of measured pKa is listed for CNCCCNC ?
8.68

What value of measured pKa is listed for NCC(O)CN ?
8.14

What value of measured pKa is listed for CC(C)(CN)CN ?
7.81

What value of measured pKa is listed for C=CCN(CC=C)CCCN(CC=C)CC=C ?
6.96

====

experiment: Dissociation constant (pK1)
Where pKa equals or exceeds 10, the correct label is YES; where it does not, the label is NO.

Solved cases (5 shown):
C1CCN(C2CCNCC2)CC1 [[1,4']Bipiperidinyl]	YES
NCCCN	YES
CN(C)CC(C)(C)CN	YES
CNCC(C)CNC	YES
CC1(C)CC(N)CC(C)(C)N1	YES

# check: pKa of C=CCN(CC=C)CCCN(CC=C)CC=C is greater than or equal to 10
NO

# check: pKa of CNCCCN is greater than or equal to 10
YES

====

experiment: Partition coefficient (logP)
measure: ΔpK

Study these solved cases before continuing.
CNCC(C)CNC	2.26
NCCCN	1.86
CNCCCNC	2.02
CN(C)CC(C)(C)CN	3.15

What value of measured ΔpK is listed for CNC1CCN(C)CC1 ?
2.75

What value of measured ΔpK is listed for C1CCN(C2CCNCC2)CC1 [[1,4']Bipiperidinyl] ?
2.76

What value of measured ΔpK is listed for C=CCN(CC=C)CCCN(CC=C)CC=C ?
1.84

What value of measured ΔpK is listed for CN(C)C1CCNCC1 ?
2.95

What value of measured ΔpK is listed for NCC(=O)CN ?
1.43

What value of measured ΔpK is listed for NCCCNCCO ?
2.09

====

experiment: Dissociation constant (pK2)
Where pKa equals or exceeds 8, the correct label is yes; where it does not, the label is no.

Solved cases (2 shown):
CN(C)C1CC(C)(C)NC(C)(C)C1	no
NC1CCN(Cc2ccccc2)CC1	no

# check: pKa of CN(C)CC(C)(C)CN is greater than or equal to 8
no

# check: pKa of CNCCCN is greater than or equal to 8
yes

# check: pKa of CNCC(C)CNC is greater than or equal to 8
yes

# check: pKa of C1CCN(CCCN2CCCCC2)CC1 is greater than or equal to 8
yes

# check: pKa of NCCCN is greater than or equal to 8
yes

# check: pKa of OCCNC1CCN(Cc2ccccc2)CC1 is greater than or equal to 8
no

====

assay: Dissociation constant (pK1)
# pKa values compiled below
The answer should be written as a number, with no unit following it.

CNC1CCN(C)CC1	10.1
CN(C)CCCN(C)C	9.81
NC1CCN(Cc2ccccc2)CC1	9.79
CC(C)(CN)CN	10.2
CN(C)C1CCNCC1	10.7

What value of measured pKa is listed for NCCCNCCO ?
10.3

What value of measured pKa is listed for C1CCN(CCCN2CCCCC2)CC1 ?
10.4

What value of measured pKa is listed for CC1(C)CC(NCCO)CC(C)(C)N1 ?
10.5

What value of measured pKa is listed for NCC(=O)CN ?
8.32

What value of measured pKa is listed for OCCNC1CCN(Cc2ccccc2)CC1 ?
9.24

What value of measured pKa is listed for CNCCCNC ?
10.7

What value of measured pKa is listed for NC1CCNCC1 ?
10.6

What value of measured pKa is listed for CN(C)C1CC(C)(C)NC(C)(C)C1 ?
10.6

====

experiment: Partition coefficient (logP)
# ΔpK values compiled below
The answer should be written as a number, with no unit following it.

NCC(O)CN	1.54

What value of measured ΔpK is listed for NC1CCNCC1 ?
2.53

What value of measured ΔpK is listed for NC1CCN(Cc2ccccc2)CC1 ?
2.74

What value of measured ΔpK is listed for CC(C)(CN)CN ?
2.37

What value of measured ΔpK is listed for CN(C)C1CC(C)(C)NC(C)(C)C1 ?
2.89

What value of measured ΔpK is listed for CC1(C)CC(N)CC(C)(C)N1 ?
2.73

What value of measured ΔpK is listed for C1CCN(CCCN2CCCCC2)CC1 ?
2.06

What value of measured ΔpK is listed for OCCNC1CCN(Cc2ccccc2)CC1 ?
2.57

What value of measured ΔpK is listed for CNCCCN ?
2.01

What value of measured ΔpK is listed for CC1(C)CC(NCCO)CC(C)(C)N1 ?
3.1

====

# pKa values compiled below
test: Dissociation constant (pK2)
The answer should be written as a number, with no unit following it.

Study these solved cases before continuing.
C1CCN(C2CCNCC2)CC1 [[1,4']Bipiperidinyl]	7.97
CC1(C)CC(N)CC(C)(C)N1	7.9

What value of measured pKa is listed for NC1CCNCC1 ?
8.1

What value of measured pKa is listed for CN(C)CCCN(C)C ?
7.77
